Listing of recorded MIC by entry.
# Test system: Aspergillus terreus AT49
# run.description: MIC, YAG medium
# Assay type: cell-based
# condition: Aspergillus terreus, 24 h at 35° C, MIC banded into grades, read-out: MIC grade, A. terreus 49

The following molecules have reported results that may help.
- smiles.str: "COCCn1c(C)cc(-c2ccccc2)c1C(=O)C(=O)Nc1cccc2cnccc12"
  MIC: "1 to 10 µg/mL"
- smiles.str: "Cc1cc(C)nc(N2CCN(c3ccc(NC(=O)C(=O)c4c(C5CCOCC5)cc(C)n4C)cc3)CC2)c1"
  MIC: "< 1 µg/mL"
- smiles.str: "Cc1cc(-c2ccccc2)c(C(=O)C(=O)Nc2ccc(N3CCN(c4ccccn4)CC3)c(F)c2)n1C"
  MIC: "< 1 µg/mL"
- smiles.str: "C=C(C)CN1CCN(c2ccc(NC(=O)C(=O)c3c(-c4ccccc4)cc(C)n3C)c(F)c2)CC1"
  MIC: "< 1 µg/mL"

// below: MIC requested for another molecule
Can you share its MIC? I mean this molecule: Cc1cc(C)nc(N2CCN(c3ccc(NC(=O)C(=O)c4c(-c5ccccc5)ccn4CCO)cc3)CC2)c1
< 1 µg/mL

----------
MIC data for Candida albicans follow.

A selection of reference data follows.
- molecule: "COCCn1ccc(-c2ccccc2Cl)c1C(=O)C(=O)Nc1ccc(N2CCN(c3cc(C)cc(C)n3)CC2)cc1 [Example 57]"
  MIC: "1 to 10 µg/mL"
- molecule: "COCCn1ccc(-c2ccccc2)c1C(=O)C(=O)Nc1ccccc1 [Example 81]"
  MIC: "< 1 µg/mL"

Here is another molecule to look at.
I'm curious: which MIC was measured for COCCn1ccc(-c2ccc(Cl)cc2)c1C(=O)C(=O)Nc1ccc(N2CCN(c3cc(C)cc(C)n3)CC2)cc1 [Example 59] tested on Candida albicans?
< 1 µg/mL

----------
Values of MIC reported for Candida tropicalis appear below.

Known MIC results, listed for orientation:
- smiles.str: "COCCn1c(C)cc(-c2ccccc2)c1C(=O)C(=O)Nc1ccc(N2CCN(c3cc(C)cc(C)n3)CC2)cc1"
  MIC: "1 to 10 µg/mL"
- smiles.str: "COCCn1ccc(-c2ccccc2)c1C(=O)C(=O)Nc1ccccc1"
  MIC: "< 1 µg/mL"
- smiles.str: "COCCn1c(C)cc(-c2ccccc2)c1C(=O)C(=O)Nc1ccc(N2CCCCC2)cc1F"
  MIC: "< 1 µg/mL"
- smiles.str: "CNC(=O)Cn1ccc(-c2ccccc2)c1C(=O)C(=O)Nc1ccc(N2CCN(c3cc(C)cc(C)n3)CC2)cc1"
  MIC: "< 1 µg/mL"
- smiles.str: "COCCn1ccc(-c2cccc(Cl)c2)c1C(=O)C(=O)Nc1ccc(N2CCN(c3cc(C)cc(C)n3)CC2)cc1"
  MIC: "1 to 10 µg/mL"
- smiles.str: "COCCn1ccc(-c2ccccc2)c1C(=O)C(=O)Nc1ccc(N2CCN(c3cc(C)cc(C)n3)CC2)cc1"
  MIC: "1 to 10 µg/mL"
- smiles.str: "COCCn1ccc(-c2ccsc2)c1C(=O)C(=O)Nc1ccc(N2CCN(c3cc(C)cc(C)n3)CC2)cc1"
  MIC: "< 1 µg/mL"
- smiles.str: "COCCn1ccc(-c2ccccc2Cl)c1C(=O)C(=O)Nc1ccc(N2CCN(c3cc(C)cc(C)n3)CC2)cc1"
  MIC: "1 to 10 µg/mL"
- smiles.str: "COCCn1ccc(-c2ccc(Cl)cc2)c1C(=O)C(=O)Nc1ccc(N2CCN(c3cc(C)cc(C)n3)CC2)cc1"
  MIC: "< 1 µg/mL"

# next molecule below
Which measured MIC belongs to C=C(C)CN1CCN(c2ccc(NC(=O)C(=O)c3c(-c4ccccc4)cc(C)n3CCOC)c(F)c2)CC1 , tested on Candida tropicalis?
1 to 10 µg/mL
